# Tested on: 786-0 renal
# assay-details: NCI tumour cell line growth inhibition, 48 h
Reported TGI values are given for each entry in this list.

Reference set (3 entries):
- compound: "C=CCOCn1ccc(N)nc1=O"
  result: "> 100 µM"
- compound: "N#Cc1cc([N+](=O)[O-])ccc1NC(=O)C(=O)C(C(=O)c1ccc2ccccc2c1)C1OCc2ccccc21 (stereo not given)"
  result: "14.7 µM"
- compound: "ClC1c2ccccc2C2(c3ccccc3)OOC1(c1ccccc1)O2 (stereo not given)"
  result: "2.98 µM"

Value of measured TGI for the entry `C[C@@H](Oc1cc(-n2cnc3ccc(OCC4CCN(C)CC4)cc32)sc1C(N)=O)c1ccccc1Cl` : 3.92 µM

Value of measured TGI for the entry `C=C(C)[C@@H]1CC[C@]2(C(=O)O)CC[C@]3(C)[C@H](CC[C@@H]4[C@@]5(C)C/C(=C/c6cccc(I)c6)C(=O)C(C)(C)[C@@H]5CC[C@]43C)[C@@H]12` : 6.72 µM

---

# Tested on: T-47D breast
# assay-details: NCI tumour cell line growth inhibition, 48 h; in the data active = GI50 below about 0.43 µM; inactive = the rest
Reply using exactly one outcome from Y = active, N = inactive

Example cases with answers are listed next.
- compound: "COc1cc(-c2nc3cc(Cl)c(Cl)cc3[nH]2)ccc1OCC(=O)N=Nc1c(O)[nH]c2ccc(Cl)cc12"
  label-class: "Y"
- compound: "O=C1CC(c2ccsc2)c2snc(-c3ccc(Cl)cc3)c2N1 (stereo not given)"
  label-class: "N"
- compound: "O=C1NC(=O)[C@@H](c2c[nH]c3ccccc23)[C@@H]1c1c[nH]c2ccccc12"
  label-class: "N"
- compound: "CCCCCCCCNC(C)C(O)c1ccc(SC(C)C)cc1 (stereo not given)"
  label-class: "N"

Prompt: Look up the recorded call for `OCCn1cc(-c2cnc3nnn(Cc4ccc5ncccc5c4)c3n2)cn1` in this test.
Completion: N

---

# System: SR leukemia
# assay-details: NCI tumour cell line growth inhibition, 48 h; in the data active = GI50 below about 0.43 µM; inactive = the rest
Reply using exactly one outcome from class 1 = active, class 0 = inactive

Example cases with answers are listed next.
- chemical-string: "COc1ccc(/C=N\\NC(=O)c2ccc3nc(-c4ccc(Cl)cc4)[nH]c3c2)cc1"
  label-class: "class 0"
- chemical-string: "CCOC(=O)Cn1c(-c2nonc2NC(=O)c2ccccc2F)nc2ccccc21"
  label-class: "class 1"
- chemical-string: "Oc1ccc(Oc2cnc3cc(Cl)ccc3n2)cc1"
  label-class: "class 0"
- chemical-string: "Nc1nc(-c2ccc(Cl)cc2)cc(-c2ccc(Cl)cc2)c1-c1nc2ccccc2o1"
  label-class: "class 0"

In the following, a different molecule is considered.
Prompt: Look up the recorded call for `O=C(Nc1ccc(Nc2ccncc2)cc1)c1ccc(Nc2ccnc3ccc([N+](=O)[O-])cc23)cc1[N+](=O)[O-]` in this test.
Completion: class 0

---

# System: T-47D breast
# assay-details: NCI tumour cell line growth inhibition, 48 h
Reported TGI values are given for each entry in this list.

Reference set (10 entries):
- compound: "CC(C)(C)OC(=O)n1c(Cl)c(C=O)c2ccccc21"
  measured-target: "T-47D breast"
  TGI: "> 100 µM"
- compound: "CC(=O)N1C(Nc2cccc3nc(C)ccc23)CCN1c1ccccc1 (stereo unspecified)"
  measured-target: "T-47D breast"
  TGI: "> 10 µM"
- compound: "CO[C@]12CC(=O)C3(C(C[C@H]4CC5CC[C@H]6C[C@@H](OC(C)=O)CC[C@]6(OC(C)=O)C5C[C@@]43C)C1)C1C[C@H]3[C@@H]4CC[C@H]5C[C@@H](OC(C)=O)CC[C@]5(OC(C)=O)[C@H]4CC[C@]3(C)C12 (stereo partly specified)"
  measured-target: "T-47D breast"
  TGI: "> 100 µM"
- compound: "O=C1/C(=C/c2ccc(Cl)cc2)CN(C(=O)CCN2CCC(=NO)CC2)C/C1=C\\c1ccc(Cl)cc1"
  measured-target: "T-47D breast"
  TGI: "4.26 µM"
- compound: "Cc1ccc(N=C2SC(=NN(C)C)SC2=Nc2ccc(C)cc2)cc1"
  measured-target: "T-47D breast"
  TGI: "> 100 µM"
- compound: "O=S1(=O)OCCCOS(=O)(=O)C1(Br)Br"
  measured-target: "T-47D breast"
  TGI: "> 100 µM"
- compound: "CCCC(C)c1c(Cl)nc(Cl)nc1Cl (stereo unspecified)"
  measured-target: "T-47D breast"
  TGI: "29 µM"
- compound: "O=S(c1ccc(Cl)cc1)c1ccccc1C1=NCCN1 (stereo unspecified)"
  measured-target: "T-47D breast"
  TGI: "> 100 µM"
- compound: "COc1cc2cnc(-c3ccccc3)cc2cc1OC"
  measured-target: "T-47D breast"
  TGI: "> 100 µM"
- compound: "CC(C)=CCC[C@@H](C)C1=CC(=O)C(C)=C(O)C1=O"
  measured-target: "T-47D breast"
  TGI: "6.35 µM"

Please find the next compound below.
Value of measured TGI for the entry `O=C(Cn1c(C(=O)c2ccc(Cl)cc2)nc(-c2ccccc2)c1-c1ccccc1)c1ccc(Cl)cc1` : > 100 µM

---

Reported TGI values are given for each entry in this list.
# Test system: NCI-H522 lung
# assay-details: NCI tumour cell line growth inhibition, 48 h
Number only, in µM; omit the unit.

Reference set (5 entries):
- compound: "O=C1/C(=C/c2ccc(Cl)cc2)CN(C(=O)CCN2CCC(=NO)CC2)C/C1=C\\c1ccc(Cl)cc1"
  measure-name: "TGI"
  number: 2.29
- compound: "Cn1cnc(SC2=C3C(=O)C=C4S[C@H]5C[C@]42c2c(c(O)c4c6c2=[N+]3CCC=6C=N4)N5)c1CC(N)C(=O)O (stereo partly specified)"
  measure-name: "TGI"
  number: 16.4
- compound: "COc1ccc(C(=O)/C=C/c2cc(-c3ccc4c(c3)OCO4)n[nH]2)cc1OC"
  measure-name: "TGI"
  number: 4.44
- compound: "CN(C)CC1CCCCCC(Br)C1=O (stereo unspecified)"
  measure-name: "TGI"
  number: 8.72
- compound: "COc1cc2cnc(-c3ccccc3)cc2cc1OC"
  measure-name: "TGI"
  number: 53

Value of measured TGI for the entry `O=C(Nc1ccc(Nc2ccncc2)cc1)c1ccc(Nc2ccnc3ccc([N+](=O)[O-])cc23)cc1[N+](=O)[O-]` : 68.6

Value of measured TGI for the entry `O=C(Nc1ccc(Oc2ccc(NC(=O)Nc3ccc([N+](=O)[O-])cc3)cc2)cc1)Nc1ccc([N+](=O)[O-])cc1` : 4.32

Value of measured TGI for the entry `O=C1c2cccnc2-c2nccc3c2c1nc1ccc(Br)cc13` : 0.128

Value of measured TGI for the entry CCOc1ccc(NCC2CC/C(=C\c3ccc(Cl)cc3)C2=O)cc1 (stereo unspecified) : 13.9

---

Reported GI50 values are given for each entry in this list.
# Tested on: OVCAR-4 ovarian
# assay-details: NCI tumour cell line growth inhibition, 48 h

Reference set (5 entries):
- compound: "O=C(Cn1c(C(=O)c2ccc(Cl)cc2)nc(-c2ccccc2)c1-c1ccccc1)c1ccc(Cl)cc1"
  measured-target: "OVCAR-4 ovarian"
  result: "> 100000 nM"
- compound: "O=C(c1ccco1)c1nc2cc(C(F)(F)F)ccc2[n+]([O-])c1C(F)(F)F"
  measured-target: "OVCAR-4 ovarian"
  result: "17900 nM"
- compound: "CC(C)=CC(=O)N[C@@H]1CC2CCC3C(CC[C@@]4(C)C3CC[C@@H]4C(C)N(C)C)[C@@]2(C)C[C@@H]1O (stereo partly drawn)"
  measured-target: "OVCAR-4 ovarian"
  result: "4320 nM"
- compound: "Cc1c2oc3c(C)cc(F)c(C(=O)NC4C(=O)NC(C(C)C)C(=O)N5CCCC5C(=O)N(C)CC(=O)N(C)C(C(C)C)C(=O)OC4C)c3nc-2c(C(=O)NC2C(=O)NC(C(C)C)C(=O)N3CCCC3C(=O)N(C)CC(=O)N(C)C(C(C)C)C(=O)OC2C)c(N)c1=O (stereo not drawn)"
  measured-target: "OVCAR-4 ovarian"
  result: "559 nM"
- compound: "COc1cc(OC)c(F)c(COc2cnc(Nc3cnn(CCO)c3)nc2)c1F"
  measured-target: "OVCAR-4 ovarian"
  result: "617 nM"

Sample `OCCn1cc(-c2cnc3nnn(Cc4ccc5ncccc5c4)c3n2)cn1` , system: OVCAR-4 ovarian. Its GI50 is > 100000 nM

Sample `O=C(c1nn(-c2ccc(Cl)cc2)cc1O)n1nc(C(F)(F)F)cc1-c1ccccc1` , system: OVCAR-4 ovarian. Its GI50 is 2430 nM

Sample `O=C(NO)c1ccc(Cn2c(=O)n(-c3ccccc3)c(=O)c3ccccc32)cc1` , system: OVCAR-4 ovarian. Its GI50 is 1560 nM

---

# Tested on: OVCAR-5 ovarian
# assay-details: NCI tumour cell line growth inhibition, 48 h
measure-name: TGI

- compound: "Nc1nccc2c1ccn2-c1cccc(NC(=O)c2ccc(N3CCOCC3)c(C(F)(F)F)c2)c1"
  TGI: "> 50 µM"
- compound: "CCOc1ccc(NCC2CC/C(=C\\c3ccc(Cl)cc3)C2=O)cc1 (configuration not stated)"
  TGI: "> 100 µM"
- compound: "COc1ccccc1NC(=O)C1=C(C)NC(C)=C(C(=O)Nc2ccccc2OC)C1c1cccc2ccccc12"
  TGI: "> 100 µM"
- compound: "O=C1CCCCN1C(=O)c1ccc([N+](=O)[O-])cc1"
  TGI: "> 100 µM"
- compound: "COc1ccc(N=Nc2c(-c3ccccc3)nn(C(=O)CC(=O)Nc3ccccc3Cl)c2-c2ccccc2)cc1"
  TGI: "> 100 µM"

Value of measured TGI for the entry `O=C(CCN1CCCC1)Nc1ccc2c(NCCc3ccccc3)c3ccccc3nc2c1` : 2.13 µM

Value of measured TGI for the entry OCC1OC(c2ccccc2)CC1O (configuration not stated) : > 100 µM

Value of measured TGI for the entry `CCOC(=O)Cn1c(-c2nonc2NC(=O)c2ccccc2F)nc2ccccc21` : > 100 µM

Value of measured TGI for the entry CC(O)C(NC(=O)c1ccccc1)C(=O)N(Cc1ccccc1)Cc1ccccc1 (configuration not stated) : > 100 µM
